# Tested on: myeloid leukemia patient primary cells Pat.6
# METHOD: cell viability (% survival relative to DMSO control); higher = less cytotoxic
# DETAILS: 100 nM; 72 h
Consider the following molecules; for each one, report its cell viability.
Please respond with the number in % and leave the unit unwritten.

Noted cell viability for CN(Cc1cnc2nc(N)nc(N)c2n1)c1ccc(C(=O)N[C@@H](CCC(=O)O)C(=O)O)cc1 [Methotrexate] , tested on myeloid leukemia patient primary cells Pat.6: 97.1

Noted cell viability for O=C(/C=C/c1ccc(O)c(O)c1)OCCc1ccccc1 , tested on myeloid leukemia patient primary cells Pat.6: 96.9

Noted cell viability for CCN(CC)C(=S)SSC(=S)N(CC)CC , tested on myeloid leukemia patient primary cells Pat.6: 80.5

Noted cell viability for Cn1cc(-c2ccncc2)c(-c2ccc(OCc3ccc4ccccc4n3)cc2)n1 , tested on myeloid leukemia patient primary cells Pat.6: 95.8

Noted cell viability for Cc1c2c(=O)n(-c3ccccc3Cl)[nH]c2cc(=O)n1Cc1ccccn1 , tested on myeloid leukemia patient primary cells Pat.6: 91.7

Noted cell viability for CC(C)(C)c1ccc(S(=O)(=O)NCc2ccc(C(=O)Nc3cccnc3)cc2)cc1 , tested on myeloid leukemia patient primary cells Pat.6: 71.1

* * *

# System: KCL-22
# METHOD: cell viability (% survival relative to DMSO control, bortezomib = 0%); higher = less cytotoxic
# DETAILS: 10 nM; 72 h
Consider the following compounds; for each one, report its cell viability.
Please respond with the number in % and leave the unit unwritten.

Record summary for CCCCCN(C)CCC(O)(P(=O)(O)O)P(=O)(O)O [Ibandronate] : reported cell viability = 105

Record summary for CCCCCCCC/C=C\CCCCCCCC(=O)Nc1ccccc1 [Octadec-9-Enoic Acid Phenylamide] : reported cell viability = 95.7

Record summary for CCc1oc2ccccc2c1C(=O)c1cc(Br)c(O)c(Br)c1 : reported cell viability = 90.7

Record summary for O=c1cc(N2CCOCC2)oc2c(-c3ccccc3)cccc12 : reported cell viability = 104

Record summary for CO[C@H]1C[C@@H]2CC[C@@H](C)[C@@](O)(O2)C(=O)C(=O)N2CCCC[C@H]2C(=O)O[C@H]([C@H](C)C[C@@H]2CC[C@@H](OC(=O)C(C)(CO)CO)[C@H](OC)C2)CC(=O)[C@H](C)/C=C(\C)[C@@H](O)[C@@H](OC)C(=O)[C@H](C)C[C@H](C)/C=C/C=C/C=C/1C : reported cell viability = 58.5

Record summary for Cn1cc(-c2ccncc2)c(-c2ccc(OCc3ccc4ccccc4n3)cc2)n1 : reported cell viability = 96

Record summary for CN(CCCOc1ccc(Cc2ccccc2)cc1)CCC(=O)O : reported cell viability = 103

Record summary for CCN(CC)C(=S)SSC(=S)N(CC)CC : reported cell viability = 92.3

Record summary for Cc1nc(-c2ccccc2)sc1C(=O)Nc1ccc(S(N)(=O)=O)cc1 : reported cell viability = 99.1

Record summary for CCCc1nc(C)c2c(=O)nc(-c3cc(S(=O)(=O)N4CCN(CC)CC4)ccc3OCC)[nH]n12 : reported cell viability = 110

Record summary for CCCCCOC(=O)Nc1nc(=O)n([C@@H]2O[C@H](C)[C@@H](O)[C@H]2O)cc1F : reported cell viability = 85.4

Record summary for COC(=O)c1cc2c(C(F)(F)F)cc(-c3ccccc3)cc2n1O : reported cell viability = 88.8

Record summary for Cc1[nH]nc(C(F)(F)F)c1Cc1sc2c(c1C(=O)N1C[C@](C)(O)CO1)c(=O)n(C)c(=O)n2C(C)C : reported cell viability = 112

Record summary for CC/C=C\C[C@H]1C(=O)CC[C@@H]1CC(=O)OC [Methyl jasmonate] : reported cell viability = 99.9

* * *

# Tested on: HL-60
# METHOD: cell viability (% survival relative to DMSO control); higher = less cytotoxic
# DETAILS: 0.001 µM; 72 h; co-treatment: AZD3965 100 nM
REPORTED_PROPERTY: cell viability (%)
Please respond with the number in % and leave the unit unwritten.

Noted cell viability for O=c1cc(N2CCOCC2)oc2c(-c3ccccc3)cccc12 , tested on HL-60: 99.5

Noted cell viability for Cc1cccc(Nc2cc(Cl)nc(SCC(=O)O)n2)c1C , tested on HL-60: 98.8

Noted cell viability for CN1CCN(CCCN2c3ccccc3Sc3ccc(C(F)(F)F)cc32)CC1 , tested on HL-60: 101

Noted cell viability for Cc1c(Cl)cccc1S(=O)(=O)Nc1nc(CC(=O)N2CCN(C)CC2)cs1 , tested on HL-60: 102

Noted cell viability for CN(CCCOc1ccc(Cc2ccccc2)cc1)CCC(=O)O , tested on HL-60: 98

Noted cell viability for O=C(/C=C/c1ccc(O)c(O)c1)OCCc1ccccc1 , tested on HL-60: 98.9

Noted cell viability for CC(C)CC(=O)N[C@H](C(=O)N[C@H](C(=O)N[C@@H](CC(C)C)[C@@H](O)CC(=O)N[C@@H](C)C(=O)N[C@@H](CC(C)C)[C@@H](O)CC(=O)O)C(C)C)C(C)C , tested on HL-60: 104

Noted cell viability for COC(=O)c1cc2c(C(F)(F)F)cc(-c3ccccc3)cc2n1O , tested on HL-60: 101

* * *

# System: myeloid leukemia patient primary cells Pat.9
# METHOD: cell viability (% survival relative to DMSO control); higher = less cytotoxic
# DETAILS: 10000 nM; 72 h
REPORTED_PROPERTY: cell viability (%)
Please respond with the number in % and leave the unit unwritten.

Record summary for Cc1[nH]nc(C(F)(F)F)c1Cc1sc2c(c1C(=O)N1C[C@](C)(O)CO1)c(=O)n(C)c(=O)n2C(C)C [AZD3965] : reported cell viability = 86.9

Record summary for CCN(CC)C(=S)SSC(=S)N(CC)CC [Disulfiram] : reported cell viability = 20.9

Record summary for CN(CCOc1ccc(Cc2sc(O)nc2O)cc1)c1ccccn1 [Rosiglitazone] : reported cell viability = 29.7

Record summary for Cn1cc(-c2ccncc2)c(-c2ccc(OCc3ccc4ccccc4n3)cc2)n1 : reported cell viability = 11.7

* * *

# Tested on: MV4-11
# METHOD: cell viability (% survival relative to DMSO control, bortezomib = 0%); higher = less cytotoxic
# DETAILS: 100 nM; 72 h
Consider the following compounds; for each one, report its cell viability.
Please respond with the number in % and leave the unit unwritten.

Record summary for C=CCN(C)CCCCCCOc1ccc(C(=O)c2ccc(Br)cc2)c(F)c1.O=C(O)/C=C/C(=O)O [Ro 48-8071 fumarate] : reported cell viability = 84.4

Record summary for C=CC(=O)c1ccc(O)cc1 : reported cell viability = 94.3

Record summary for CC(C)(C)c1ccc(S(=O)(=O)NCc2ccc(C(=O)Nc3cccnc3)cc2)cc1 : reported cell viability = 3.11

Record summary for CC/C=C\C[C@H]1C(=O)CC[C@@H]1CC(=O)OC [Methyl jasmonate] : reported cell viability = 108

Record summary for O=C(/C=C/c1ccc(O)c(O)c1)OCCc1ccccc1 : reported cell viability = 111

Record summary for CCn1c(=Cc2cccc[n+]2CC)sc(=C2Sc3ccccc3N2C)c1=O : reported cell viability = 109

Record summary for c1cc(-c2cnn3cc(-c4ccc(OCCN5CCCCC5)cc4)cnc23)ccn1 : reported cell viability = 97.4

Record summary for C[C@]12C=CC(=O)C=C1CC[C@@H]1[C@@H]2[C@@H](O)C[C@@]2(C)[C@H]1CC[C@]2(O)C(=O)CO : reported cell viability = 143

* * *

# System: KU-812
# METHOD: cell viability (% survival relative to DMSO control, bortezomib = 0%); higher = less cytotoxic
# DETAILS: 100 nM; 72 h
REPORTED_PROPERTY: cell viability (%)
Please respond with the number in % and leave the unit unwritten.

Noted cell viability for COC(=O)c1cc2c(C(F)(F)F)cc(-c3ccccc3)cc2n1O , tested on KU-812: 97.7

Noted cell viability for C[C@]12C=CC(=O)C=C1CC[C@@H]1[C@@H]2[C@@H](O)C[C@@]2(C)[C@H]1CC[C@]2(O)C(=O)CO , tested on KU-812: 99.8

Noted cell viability for O=C(Nc1ccccc1)c1cc([N+](=O)[O-])ccc1Cl , tested on KU-812: 113

Noted cell viability for Cc1nc(-c2ccccc2)sc1C(=O)Nc1ccc(S(N)(=O)=O)cc1 , tested on KU-812: 96.4

* * *

# System: MOLM-13
# METHOD: cell viability (% survival relative to DMSO control, bortezomib = 0%); higher = less cytotoxic
# DETAILS: 1 nM; 72 h
REPORTED_PROPERTY: cell viability (%)
Please respond with the number in % and leave the unit unwritten.

Record summary for Cc1cc(C(=O)NNCc2ccccc2)no1 [Isocarboxazid] : reported cell viability = 104

Record summary for CN1CCN(CCCN2c3ccccc3Sc3ccc(C(F)(F)F)cc32)CC1 [Trifluoperazine] : reported cell viability = 105

Record summary for CN(CCOc1ccc(Cc2sc(O)nc2O)cc1)c1ccccn1 [Rosiglitazone] : reported cell viability = 107

Record summary for O=C(/C=C/c1ccc(O)c(O)c1)OCCc1ccccc1 [Caffeic acid phenethyl ester] : reported cell viability = 90.7

Record summary for Cc1nc(-c2ccccc2)sc1C(=O)Nc1ccc(S(N)(=O)=O)cc1 : reported cell viability = 102

Record summary for CC[C@H](C)[C@H](N)C(=O)N1CCSC1 [P32/98] : reported cell viability = 84.3

Record summary for CCOC(=O)c1sc(NC(=O)c2ccco2)c(SC#N)c1C [CBR-5884] : reported cell viability = 97.2

Record summary for N#Cc1ccc(N(Cc2ccc(Br)cc2)n2cnnc2)cc1 [YM511] : reported cell viability = 131

Record summary for CCCCCCCC/C=C\CCCCCCCC(=O)Nc1ccccc1 [Octadec-9-Enoic Acid Phenylamide] : reported cell viability = 106

Record summary for C=CC(=O)c1ccc(O)cc1 [4-Acryloylphenol] : reported cell viability = 81.7

Record summary for COC(=O)c1cc2c(C(F)(F)F)cc(-c3ccccc3)cc2n1O [NHI-2] : reported cell viability = 87
